- Tested on: NCI-H727
- Protocol notes: relative viability (nuclei count vs DMSO), 5 days (fraction); higher = more cells survive
- Test settings: first compound 1.265 µM
Metric: relative viability
In your answer, state the number alone without any accompanying words.

// below: answered compounds
Clc1ccc(Nc2nnc(Cc3ccncc3)c3ccccc23)cc1 [Vatalanib] + COc1cc2c(Oc3ccc(NC(=O)C4(C(=O)Nc5ccc(F)cc5)CC4)cc3F)ccnc2cc1OCCCN1CCOCC1 [Foretinib] (partner 0.25 µM) : 0.572
Clc1ccc(Nc2nnc(Cc3ccncc3)c3ccccc23)cc1 [Vatalanib] + CS(=O)(=O)N1CCN(Cc2cc3nc(-c4cccc5[nH]ncc45)nc(N4CCOCC4)c3s2)CC1 [Pictilisib] (partner 1 µM) : 0.399

Below: the item to evaluate.
Reported relative viability for Clc1ccc(Nc2nnc(Cc3ccncc3)c3ccccc23)cc1 [Vatalanib] + CC(C)C[C@H](NC(=O)[C@H](Cc1ccccc1)NC(=O)c1cnccn1)B(O)O [Bortezomib] (partner 0.002 µM) was 0.854

----------
- Test system: NCI-H2170
- Protocol notes: relative viability (nuclei count vs DMSO), 5 days (fraction); higher = more cells survive
- Test settings: first compound 0.01 µM
hey, just use satisfied if measured relative viability is less than 0.5, otherwise not satisfied

CC(C)Oc1cc(Nc2nc(N[C@@H](C)c3ccc(F)cn3)ncc2Cl)n[nH]1 [AZ23] + Cc1nc(NC(=O)N2CCC[C@H]2C(N)=O)sc1-c1ccnc(C(C)(C)C(F)(F)F)c1 [Alpelisib] (partner 2 µM) : not satisfied
CC(C)Oc1cc(Nc2nc(N[C@@H](C)c3ccc(F)cn3)ncc2Cl)n[nH]1 [AZ23] + N=C(N)NC(=N)NCCc1ccccc1 [Phenformin] (partner 250 µM) : satisfied
CC(C)Oc1cc(Nc2nc(N[C@@H](C)c3ccc(F)cn3)ncc2Cl)n[nH]1 [AZ23] + CS(=O)(=O)N1CCN(Cc2cc3nc(-c4cccc5[nH]ncc45)nc(N4CCOCC4)c3s2)CC1 [Pictilisib] (partner 1 µM) : satisfied
CC(C)Oc1cc(Nc2nc(N[C@@H](C)c3ccc(F)cn3)ncc2Cl)n[nH]1 [AZ23] + COc1cccc2cc(-c3nc([C@H]4CC[C@H](C(=O)O)CC4)n4ncnc(N)c34)[nH]c12 [OSI-027] (partner 0.5 µM) : not satisfied

# input for lookup
Query: Find out if reported relative viability for CC(C)Oc1cc(Nc2nc(N[C@@H](C)c3ccc(F)cn3)ncc2Cl)n[nH]1 [AZ23] + Nc1ncn([C@H]2C[C@H](O)[C@@H](CO)O2)c(=O)n1 [Decitabine] (partner 2 µM) is less than 0.5
Response: satisfied

----------
- Test system: 201T
- Protocol notes: relative viability (nuclei count vs DMSO), 5 days (fraction); higher = more cells survive
- Test settings: first compound 0.04 µM
The following molecules are shown together with reported relative viability values.
In your answer, state the number alone without any accompanying words.

Clc1ccc(Nc2nnc(Cc3ccncc3)c3ccccc23)cc1 [Vatalanib] + Nc1nc2[nH]cc(CCc3ccc(C(=O)N[C@@H](CCC(=O)O)C(=O)O)cc3)c2c(=O)[nH]1 [Pemetrexed] (partner 0.2 µM) : 0.305
C[C@@H]1CN(CC(=O)Nc2ccc3c(c2)Cc2cccc(-c4cc(=O)cc(N5CCOCC5)o4)c2S3)C[C@H](C)O1 + Nc1nc2[nH]cc(CCc3ccc(C(=O)N[C@@H](CCC(=O)O)C(=O)O)cc3)c2c(=O)[nH]1 [Pemetrexed] (partner 0.2 µM) : 0.329
COc1cc(N2CCC(C(N)=O)CC2)ccc1Nc1nc(N)c(Cl)c(Nc2ccccc2S(=O)(=O)C(C)C)n1 [HG-5-88-01] + CC1(C)CCC(c2ccc(Cl)cc2)=C(CN2CCN(c3ccc(C(=O)NS(=O)(=O)c4ccc(N[C@H](CCN5CCOCC5)CSc5ccccc5)c(S(=O)(=O)C(F)(F)F)c4)cc3)CC2)C1 [Navitoclax] (partner 0.5 µM) : 1.22

Reported relative viability for Clc1ccc(Nc2nnc(Cc3ccncc3)c3ccccc23)cc1 [Vatalanib] + C[C@@H](Oc1cc(-c2cnn(C3CCNCC3)c2)cnc1N)c1c(Cl)ccc(F)c1Cl [Crizotinib] (partner 1 µM) was 1

----------
The following compounds are shown together with reported relative viability values.
- System: COR-L23
- Protocol notes: relative viability (nuclei count vs DMSO), 5 days (fraction); higher = more cells survive
- Test settings: first compound 0.04 µM
In your answer, state the number alone without any accompanying words.

// below: answered compounds
COc1cc(N2CCC(C(N)=O)CC2)ccc1Nc1nc(N)c(Cl)c(Nc2ccccc2S(=O)(=O)C(C)C)n1 [HG-5-88-01] + O=C(c1cc(Cc2n[nH]c(=O)c3ccccc23)ccc1F)N1CCN(C(=O)C2CC2)CC1 [Olaparib] (partner 8 µM) : 0.336
Clc1ccc(Nc2nnc(Cc3ccncc3)c3ccccc23)cc1 [Vatalanib] + CS(=O)(=O)CCNCc1ccc(-c2ccc3ncnc(Nc4ccc(OCc5cccc(F)c5)c(Cl)c4)c3c2)o1 [Lapatinib] (partner 2 µM) : 0.848
Clc1ccc(Nc2nnc(Cc3ccncc3)c3ccccc23)cc1 [Vatalanib] + Cc1nc(Nc2ncc(C(=O)Nc3c(C)cccc3Cl)s2)cc(N2CCN(CCO)CC2)n1 [Dasatinib] (partner 0.075 µM) : 0.502

Below: the item to evaluate.
Reported relative viability for C[C@@H]1CN(CC(=O)Nc2ccc3c(c2)Cc2cccc(-c4cc(=O)cc(N5CCOCC5)o4)c2S3)C[C@H](C)O1 + CCNC(=O)c1noc(-c2cc(C(C)C)c(O)cc2O)c1-c1ccc(CN2CCOCC2)cc1 [Luminespib] (partner 0.01 µM) was 0.793

----------
- System: LK-2
- Protocol notes: relative viability (nuclei count vs DMSO), 5 days (fraction); higher = more cells survive
- Test settings: first compound 0.1265 µM
Metric: relative viability

// below: answered molecules
C[C@@H]1CN(CC(=O)Nc2ccc3c(c2)Cc2cccc(-c4cc(=O)cc(N5CCOCC5)o4)c2S3)C[C@H](C)O1 + CS(=O)(=O)N1CCN(Cc2cc3nc(-c4cccc5[nH]ncc45)nc(N4CCOCC4)c3s2)CC1 [Pictilisib] (partner 1 µM) : 0.634
Clc1ccc(Nc2nnc(Cc3ccncc3)c3ccccc23)cc1 [Vatalanib] + C[C@]1(O)C[C@@H](c2nc(-c3ccc4ccc(-c5ccccc5)nc4c3)c3c(N)nccn32)C1 [Linsitinib] (partner 1 µM) : 0.423
COc1cc(N2CCC(C(N)=O)CC2)ccc1Nc1nc(N)c(Cl)c(Nc2ccccc2S(=O)(=O)C(C)C)n1 [HG-5-88-01] + NC(=O)Nc1cc(-c2cccc(F)c2)sc1C(=O)N[C@H]1CCCNC1 [AZD7762] (partner 0.2 µM) : 0.329
C[C@@H]1CN(CC(=O)Nc2ccc3c(c2)Cc2cccc(-c4cc(=O)cc(N5CCOCC5)o4)c2S3)C[C@H](C)O1 + NC(=O)Nc1cc(-c2cccc(F)c2)sc1C(=O)N[C@H]1CCCNC1 [AZD7762] (partner 0.2 µM) : 0.363

Reported relative viability for C[C@@H]1CN(CC(=O)Nc2ccc3c(c2)Cc2cccc(-c4cc(=O)cc(N5CCOCC5)o4)c2S3)C[C@H](C)O1 + CS(=O)(=O)CCNCc1ccc(-c2ccc3ncnc(Nc4ccc(OCc5cccc(F)c5)c(Cl)c4)c3c2)o1 [Lapatinib] (partner 2 µM) was 0.938

----------
- Test system: NCI-H2347
- Protocol notes: relative viability (nuclei count vs DMSO), 5 days (fraction); higher = more cells survive
- Test settings: first compound 0.1265 µM
Metric: relative viability
In your answer, state the number alone without any accompanying words.

Reported relative viability for COc1cc(N2CCC(C(N)=O)CC2)ccc1Nc1nc(N)c(Cl)c(Nc2ccccc2S(=O)(=O)C(C)C)n1 [HG-5-88-01] + NC(=O)Nc1cc(-c2cccc(F)c2)sc1C(=O)N[C@H]1CCCNC1 [AZD7762] (partner 0.2 µM) was 0.9

Reported relative viability for C[C@@H]1CN(CC(=O)Nc2ccc3c(c2)Cc2cccc(-c4cc(=O)cc(N5CCOCC5)o4)c2S3)C[C@H](C)O1 + NC(=O)Nc1cc(-c2cccc(F)c2)sc1C(=O)N[C@H]1CCCNC1 [AZD7762] (partner 0.2 µM) was 0.913

Reported relative viability for COc1cc(N2CCC(C(N)=O)CC2)ccc1Nc1nc(N)c(Cl)c(Nc2ccccc2S(=O)(=O)C(C)C)n1 [HG-5-88-01] + Cc1nc(NC(=O)N2CCC[C@H]2C(N)=O)sc1-c1ccnc(C(C)(C)C(F)(F)F)c1 [Alpelisib] (partner 2 µM) was 1.14

Reported relative viability for COc1cc(N2CCC(C(N)=O)CC2)ccc1Nc1nc(N)c(Cl)c(Nc2ccccc2S(=O)(=O)C(C)C)n1 [HG-5-88-01] + O=C(c1cc(Cc2n[nH]c(=O)c3ccccc23)ccc1F)N1CCN(C(=O)C2CC2)CC1 [Olaparib] (partner 8 µM) was 0.569

Reported relative viability for COc1cc(N2CCC(C(N)=O)CC2)ccc1Nc1nc(N)c(Cl)c(Nc2ccccc2S(=O)(=O)C(C)C)n1 [HG-5-88-01] + C[C@@H](Oc1cc(-c2cnn(C3CCNCC3)c2)cnc1N)c1c(Cl)ccc(F)c1Cl [Crizotinib] (partner 1 µM) was 0.81
